- Tested on: human primary hepatocytes
- experimentDescription: Depletion of inhibitors in human primary hepatocyte suspension (LC-MS/MS)
- details: primary human hepatocytes, 10 µM, 120 min, % of 0-min concentration, mean ± S.E.M.
Threshold rule: Parent compound retained at the 120-min sampling point greater than or equal to 50% is TRUE; below that, FALSE.

# count of solved cases: 4
compound | assignedLabel
COc1ccc(-c2cccc(S(=O)(=O)N[C@@H](Cc3cccc(C(=N)N)c3)C(=O)N3CCC(N)CC3)c2)c(OC)c1 [MI-472] | TRUE
CC(C)(C)NC(=O)NC1CCN(C(=O)[C@H](Cc2cccc(C(=N)N)c2)NS(=O)(=O)c2cccc(-c3ccc(CO)cc3)c2)CC1 [MI-1903] | FALSE
CC(C)(C)NC(=O)NC1CCN(C(=O)[C@H](Cc2cccc(C(=N)N)c2)NS(=O)(=O)c2cccc(-c3ccc(CO)c(F)c3)c2)CC1 [MI-1904] | TRUE
N=C(N)c1cccc(C[C@H](NS(=O)(=O)c2cccc(NC(=O)CCN)c2)C(=O)N2CCC(CCN)CC2)c1 [MI-21] | FALSE

Could you now consider this next compound?
Problem: Check the entry COc1ccc(-c2cccc(S(=O)(=O)N[C@@H](Cc3cccc(C(=N)N)c3)C(=O)N3CCC(NC(=O)NC(C)(C)C)CC3)c2)c(OC)c1 [MI-485] : does Parent compound retained at the 120-min sampling point equal or exceed 50%?
Result: TRUE

----------
- experimentDescription: Depletion of inhibitors in human primary hepatocyte suspension (LC-MS/MS)
- details: human, cryopreserved primary human hepatocytes in suspension, CLint, intrinsic clearance from primary human hepatocytes scaled to whole liver/body weight
Threshold rule: CLint scaled at 10 µM greater than or equal to 40 mL/min/kg is satisfied; below that, not satisfied.

# count of solved cases: 6
compound | assignedLabel
COc1ccc(-c2cccc(S(=O)(=O)N[C@@H](Cc3cccc(C(=N)N)c3)C(=O)N3CCC(NC(=O)NC(C)(C)C)CC3)c2)c(OC)c1 [MI-485] | not satisfied
COc1ccc(-c2cccc(S(=O)(=O)N[C@@H](Cc3cccc(C(=N)N)c3)C(=O)N3CCC(N)CC3)c2)c(OC)c1 [MI-472] | not satisfied
CC(C)(C)NC(=O)NC1CCN(C(=O)[C@H](Cc2cccc(C(=N)N)c2)NS(=O)(=O)c2cccc(-c3ccc(CO)c(F)c3)c2)CC1 [MI-1904] | not satisfied
COc1ccc(-c2cccc(S(=O)(=O)N[C@@H](Cc3cccc(C(=N)N)c3)C(=O)N3CCC(NC(=O)NC4CCCCC4)CC3)c2)c(OC)c1 [MI-463] | not satisfied
CC(C)(C)NC(=O)NC1CCN(C(=O)[C@H](Cc2cccc(C(=N)N)c2)NS(=O)(=O)c2cccc(-c3ccc(CO)cc3)c2)CC1 [MI-1903] | satisfied
COc1ccc(-c2cccc(S(=O)(=O)N[C@@H](Cc3cccc(C(=N)N)c3)C(=O)N3CCN(C(=O)NC4CCCCC4)CC3)c2)c(OC)c1 [MI-1900] | satisfied

Problem: Check the entry N=C(N)c1cccc(C[C@H](NS(=O)(=O)c2cccc(NC(=O)CCN)c2)C(=O)N2CCC(CCN)CC2)c1 [MI-21] : does CLint scaled at 10 µM equal or exceed 40 mL/min/kg?
Result: satisfied

----------
- experimentDescription: Prediction of in vivo human PK parameters from hepatocyte clearance
- Format: in vitro ADME
- details: predicted
Reported Extraction ratio EH values for a set of compounds
Number, no unit, nothing else.

Reference set, count: 2
givenSmiles | resultNumber
N=C(N)c1cccc(C[C@H](NS(=O)(=O)c2cccc(NC(=O)CCN)c2)C(=O)N2CCC(CCN)CC2)c1 | 0.53
CC(C)(C)NC(=O)NC1CCN(C(=O)[C@H](Cc2cccc(C(=N)N)c2)NS(=O)(=O)c2cccc(-c3ccc(CO)cc3)c2)CC1 | 0.51

Problem: Record request: Extraction ratio EH value, item COc1ccc(-c2cccc(S(=O)(=O)N[C@@H](Cc3cccc(C(=N)N)c3)C(=O)N3CCC(NC(=O)NC(C)(C)C)CC3)c2)c(OC)c1
Result: 0.39

Source of measurements: paper PMC11258351
